# Target or test system: Tyrosine-protein kinase Lck (Homo sapiens)
# Sequence (P06239 whole entry): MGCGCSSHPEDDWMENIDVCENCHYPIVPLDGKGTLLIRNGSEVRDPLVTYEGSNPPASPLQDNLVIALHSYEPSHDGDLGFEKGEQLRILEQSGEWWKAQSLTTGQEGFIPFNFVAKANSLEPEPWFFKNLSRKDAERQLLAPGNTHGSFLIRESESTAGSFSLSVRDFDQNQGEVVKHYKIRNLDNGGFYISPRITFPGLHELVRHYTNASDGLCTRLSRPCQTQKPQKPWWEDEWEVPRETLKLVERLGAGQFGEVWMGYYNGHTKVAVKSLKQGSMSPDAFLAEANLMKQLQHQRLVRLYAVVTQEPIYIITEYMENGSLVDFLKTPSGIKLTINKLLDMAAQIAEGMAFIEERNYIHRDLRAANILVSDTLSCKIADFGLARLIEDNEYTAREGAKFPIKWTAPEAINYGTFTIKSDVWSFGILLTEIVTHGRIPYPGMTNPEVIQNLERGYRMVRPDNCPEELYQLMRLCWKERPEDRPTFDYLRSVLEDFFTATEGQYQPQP
# Test details: Inhibitory activity against lck
Quantity measured: IC50 (nM)

Below, 3 compounds whose answers are already recorded.
COc1cc(-c2nn(C3CCN(C4CCOCC4)CC3)c3ncnc(N)c23)ccc1NC(=O)c1ccc(N(C)C)cc1 = 106
COc1cc(-c2nn(C3CCN(C4CCN(C(C)=O)CC4)CC3)c3ncnc(N)c23)ccc1NC(=O)c1cc2ccccc2n1C = 74
COc1cc(-c2nn(C3CCN(C4CCOCC4)CC3)c3ncnc(N)c23)ccc1NC(=O)c1cc2ccccc2n1C = 107

A. COc1cc(-c2nn(C3CCN(Cc4ccccc4)CC3)c3ncnc(N)c23)ccc1NC(=O)c1ccc(C(F)(F)F)cc1F
B. COc1cc(-c2nn(C3CCN(C4CCN(C(C)=O)CC4)CC3)c3ncnc(N)c23)ccc1NC(=O)c1ccc(C(F)(F)F)cc1F
C. COc1cc(-c2nn(C3CCN(C4CCOCC4)CC3)c3ncnc(N)c23)ccc1NC(=O)c1cccc(O)c1
Q. rank_up(items): orders items by reported IC50 in ascending numerical order. Field: ranking. Enter the labels in the order requested.
A. B, A, C
(B: 93 nM, A: 341 nM, C: 23200 nM)
